# ASSAY SYSTEM: UniProt:P08588
# Sequence (P08588 whole entry, species assumed): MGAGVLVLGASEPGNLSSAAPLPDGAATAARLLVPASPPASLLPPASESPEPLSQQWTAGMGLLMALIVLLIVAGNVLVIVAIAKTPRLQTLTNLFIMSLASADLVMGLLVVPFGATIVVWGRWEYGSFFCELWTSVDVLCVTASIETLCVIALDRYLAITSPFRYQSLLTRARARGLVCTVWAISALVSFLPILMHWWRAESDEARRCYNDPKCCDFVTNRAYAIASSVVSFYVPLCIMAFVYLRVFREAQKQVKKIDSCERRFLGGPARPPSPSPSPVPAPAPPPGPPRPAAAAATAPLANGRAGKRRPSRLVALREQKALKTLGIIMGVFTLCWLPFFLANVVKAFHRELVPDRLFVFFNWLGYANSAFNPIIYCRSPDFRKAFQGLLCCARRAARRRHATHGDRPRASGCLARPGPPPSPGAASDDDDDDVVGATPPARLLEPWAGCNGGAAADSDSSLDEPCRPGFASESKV
TEST READOUT: IC50

Please tell me: IC50 of O=C(Nc1nccs1)C(c1cc(F)ccc1O)N1Cc2ccccc2C1=O (stereo not shown) , system UniProt:P08588? > 30 µM

###

# ASSAY SYSTEM: Phosphodiesterase 4D (Homo sapiens, UniProt Q08499)
# Sequence (Q08499 whole entry): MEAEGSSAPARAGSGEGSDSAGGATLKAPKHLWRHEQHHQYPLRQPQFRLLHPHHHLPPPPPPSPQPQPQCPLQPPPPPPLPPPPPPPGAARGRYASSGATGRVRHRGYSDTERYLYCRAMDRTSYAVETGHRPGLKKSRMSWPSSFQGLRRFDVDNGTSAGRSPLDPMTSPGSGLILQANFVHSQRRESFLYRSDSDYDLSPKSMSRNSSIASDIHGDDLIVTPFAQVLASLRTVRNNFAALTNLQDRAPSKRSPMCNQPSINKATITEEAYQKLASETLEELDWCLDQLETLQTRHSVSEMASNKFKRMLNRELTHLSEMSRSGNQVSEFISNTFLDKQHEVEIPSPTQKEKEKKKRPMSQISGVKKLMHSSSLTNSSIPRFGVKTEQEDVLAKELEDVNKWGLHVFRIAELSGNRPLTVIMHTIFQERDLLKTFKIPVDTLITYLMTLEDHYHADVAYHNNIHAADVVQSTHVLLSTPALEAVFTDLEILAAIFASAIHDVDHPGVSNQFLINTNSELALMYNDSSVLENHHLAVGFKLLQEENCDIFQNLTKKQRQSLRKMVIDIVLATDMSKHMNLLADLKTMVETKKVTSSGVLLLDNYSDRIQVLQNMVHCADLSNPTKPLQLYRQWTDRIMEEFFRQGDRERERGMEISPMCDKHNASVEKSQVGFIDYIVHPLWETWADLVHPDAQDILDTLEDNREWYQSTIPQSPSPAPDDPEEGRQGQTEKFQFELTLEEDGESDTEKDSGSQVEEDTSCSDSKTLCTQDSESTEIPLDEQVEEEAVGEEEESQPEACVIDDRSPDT
TEST READOUT: IC50

Please tell me: IC50 of O=C(Nc1nccs1)C(c1cc(F)ccc1O)N1Cc2ccccc2C1=O (stereo not shown) , system Phosphodiesterase 4D (Homo sapiens, UniProt Q08499)? > 30 µM

###

# ASSAY SYSTEM: PPARgamma Receptor (Homo sapiens)
# ASSAY COMMENT: PPARgamma Receptor agonist assay
# Format: cell-based
TEST READOUT: IC50

Item O=C(Nc1nccs1)C(c1cc(F)ccc1O)N1Cc2ccccc2C1=O (stereo not shown) has what recorded IC50? > 30 µM

###

# ASSAY SYSTEM: Serotonin 5HT2A (Homo sapiens)
# Sequence (P28223 whole entry): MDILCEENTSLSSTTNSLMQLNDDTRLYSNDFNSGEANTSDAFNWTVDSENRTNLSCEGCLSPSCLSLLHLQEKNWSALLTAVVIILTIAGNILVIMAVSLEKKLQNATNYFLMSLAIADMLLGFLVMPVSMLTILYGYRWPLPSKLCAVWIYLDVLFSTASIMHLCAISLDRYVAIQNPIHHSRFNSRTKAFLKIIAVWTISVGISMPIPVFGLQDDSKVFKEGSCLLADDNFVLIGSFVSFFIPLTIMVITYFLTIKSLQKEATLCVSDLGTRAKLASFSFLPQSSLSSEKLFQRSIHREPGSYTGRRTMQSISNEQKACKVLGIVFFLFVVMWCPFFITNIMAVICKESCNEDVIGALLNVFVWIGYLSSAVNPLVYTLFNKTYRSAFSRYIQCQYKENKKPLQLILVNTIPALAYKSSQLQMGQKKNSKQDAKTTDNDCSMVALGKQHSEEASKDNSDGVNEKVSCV
# ASSAY COMMENT: Serotonin 5HT2A calcium flux assay
# Type: cell-based
pIC50: −log10 of the molar value.
TEST READOUT: pIC50

Please tell me: pIC50 of O=C(Nc1nccs1)C(c1cc(F)ccc1O)N1Cc2ccccc2C1=O (stereo not shown) , system Serotonin 5HT2A (Homo sapiens)? < 4.52

###

# ASSAY SYSTEM: PPARgamma Receptor (Homo sapiens, UniProt P37231)
# Sequence (P37231 whole entry): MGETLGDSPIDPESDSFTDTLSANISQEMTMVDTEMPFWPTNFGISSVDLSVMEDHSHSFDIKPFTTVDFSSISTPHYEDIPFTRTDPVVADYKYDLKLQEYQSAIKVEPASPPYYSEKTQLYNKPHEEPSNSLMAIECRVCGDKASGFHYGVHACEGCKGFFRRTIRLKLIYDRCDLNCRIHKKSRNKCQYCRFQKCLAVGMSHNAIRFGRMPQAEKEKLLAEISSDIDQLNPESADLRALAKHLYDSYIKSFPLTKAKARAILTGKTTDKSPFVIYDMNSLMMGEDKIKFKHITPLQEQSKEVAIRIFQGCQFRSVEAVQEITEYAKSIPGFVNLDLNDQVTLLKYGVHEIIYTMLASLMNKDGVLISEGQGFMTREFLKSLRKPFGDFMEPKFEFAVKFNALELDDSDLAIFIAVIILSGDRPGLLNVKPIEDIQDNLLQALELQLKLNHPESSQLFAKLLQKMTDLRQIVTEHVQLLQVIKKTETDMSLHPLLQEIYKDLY
# ASSAY COMMENT: PPARgamma Receptor antagonist assay
# Assay type: cell-based
TEST READOUT: IC50

Item O=C(Nc1nccs1)C(c1cc(F)ccc1O)N1Cc2ccccc2C1=O (stereo not shown) [EAI045] has what recorded IC50? > 30 µM

###

# ASSAY SYSTEM: UniProt:Q14432
# Sequence (Q14432 whole entry): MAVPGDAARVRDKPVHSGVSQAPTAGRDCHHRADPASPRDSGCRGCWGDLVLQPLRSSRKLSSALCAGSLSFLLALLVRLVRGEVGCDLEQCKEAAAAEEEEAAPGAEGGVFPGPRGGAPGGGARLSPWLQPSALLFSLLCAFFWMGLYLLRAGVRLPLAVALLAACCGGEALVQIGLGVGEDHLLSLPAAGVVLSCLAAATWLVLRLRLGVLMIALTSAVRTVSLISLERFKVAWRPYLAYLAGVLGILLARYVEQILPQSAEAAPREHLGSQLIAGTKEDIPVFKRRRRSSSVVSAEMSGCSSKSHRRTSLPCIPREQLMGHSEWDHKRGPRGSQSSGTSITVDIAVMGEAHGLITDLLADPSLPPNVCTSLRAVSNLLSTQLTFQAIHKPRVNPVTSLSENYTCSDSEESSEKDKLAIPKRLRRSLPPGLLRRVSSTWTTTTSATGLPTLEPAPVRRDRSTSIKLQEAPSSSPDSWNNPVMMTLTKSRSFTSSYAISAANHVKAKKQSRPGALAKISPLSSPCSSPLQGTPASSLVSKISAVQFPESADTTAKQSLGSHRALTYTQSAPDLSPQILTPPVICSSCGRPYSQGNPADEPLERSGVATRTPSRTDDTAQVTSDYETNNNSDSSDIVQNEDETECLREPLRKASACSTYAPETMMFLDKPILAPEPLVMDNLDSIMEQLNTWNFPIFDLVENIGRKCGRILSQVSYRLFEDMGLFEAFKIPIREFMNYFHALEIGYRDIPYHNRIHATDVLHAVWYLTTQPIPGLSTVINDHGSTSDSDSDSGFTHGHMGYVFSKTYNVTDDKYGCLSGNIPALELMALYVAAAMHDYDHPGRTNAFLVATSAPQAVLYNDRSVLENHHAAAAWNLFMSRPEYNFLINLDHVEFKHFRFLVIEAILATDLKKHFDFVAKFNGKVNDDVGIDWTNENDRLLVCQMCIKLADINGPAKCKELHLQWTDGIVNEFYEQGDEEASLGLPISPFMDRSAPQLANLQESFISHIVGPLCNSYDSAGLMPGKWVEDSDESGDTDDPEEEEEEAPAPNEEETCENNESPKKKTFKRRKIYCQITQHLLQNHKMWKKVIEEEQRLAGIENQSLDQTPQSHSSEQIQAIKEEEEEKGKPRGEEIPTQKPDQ
pIC50: −log10 of the molar value.
TEST READOUT: pIC50

Please tell me: pIC50 of O=C(Nc1nccs1)C(c1cc(F)ccc1O)N1Cc2ccccc2C1=O (stereo not shown) , system UniProt:Q14432? < 4.52

###

# ASSAY SYSTEM: Adrenergic Alpha 2C receptor (Homo sapiens, UniProt P18825)
# Sequence (P18825 whole entry): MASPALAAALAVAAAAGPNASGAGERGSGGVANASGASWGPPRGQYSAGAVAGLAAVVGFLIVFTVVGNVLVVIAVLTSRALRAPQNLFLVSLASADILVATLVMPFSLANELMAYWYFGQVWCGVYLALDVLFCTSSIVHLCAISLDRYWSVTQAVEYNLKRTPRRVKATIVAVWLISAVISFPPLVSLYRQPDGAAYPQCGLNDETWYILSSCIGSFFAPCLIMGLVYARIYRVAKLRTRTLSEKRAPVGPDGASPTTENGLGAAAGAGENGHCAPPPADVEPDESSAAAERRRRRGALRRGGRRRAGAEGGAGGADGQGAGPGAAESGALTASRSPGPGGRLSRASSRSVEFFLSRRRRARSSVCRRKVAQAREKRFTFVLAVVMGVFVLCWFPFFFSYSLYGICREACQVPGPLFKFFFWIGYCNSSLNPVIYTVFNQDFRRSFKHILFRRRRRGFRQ
# ASSAY COMMENT: Adrenergic Alpha 2C receptor assay
# Assay type: binding
pIC50: −log10 of the molar value.
TEST READOUT: pIC50

Item O=C(Nc1nccs1)C(c1cc(F)ccc1O)N1Cc2ccccc2C1=O (stereo not shown) has what recorded pIC50? < 4.52

###

# ASSAY SYSTEM: H1 receptor (Homo sapiens, UniProt P35367)
# Sequence (P35367 whole entry): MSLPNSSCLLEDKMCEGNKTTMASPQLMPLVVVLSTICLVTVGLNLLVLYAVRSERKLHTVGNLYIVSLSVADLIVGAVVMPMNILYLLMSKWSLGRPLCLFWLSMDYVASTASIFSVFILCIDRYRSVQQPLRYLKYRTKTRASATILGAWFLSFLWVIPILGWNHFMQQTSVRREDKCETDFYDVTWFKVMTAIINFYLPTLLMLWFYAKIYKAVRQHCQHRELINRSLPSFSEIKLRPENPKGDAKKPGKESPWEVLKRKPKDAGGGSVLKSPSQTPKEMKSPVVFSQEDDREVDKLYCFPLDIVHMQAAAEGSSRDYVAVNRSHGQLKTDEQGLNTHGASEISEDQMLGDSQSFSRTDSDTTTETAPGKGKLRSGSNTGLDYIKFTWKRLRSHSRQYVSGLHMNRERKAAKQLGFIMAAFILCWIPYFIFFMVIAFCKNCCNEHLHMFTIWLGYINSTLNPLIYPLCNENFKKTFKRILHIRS
# ASSAY COMMENT: H1 receptor calcium assay
# Format: cell-based
TEST READOUT: IC50

Item O=C(Nc1nccs1)C(c1cc(F)ccc1O)N1Cc2ccccc2C1=O (stereo not shown) has what recorded IC50? > 30 µM

###

# Tested on: CYP3A4
# ASSAY COMMENT: CYP3A4 Induction Reporter Gene
# Assay type: cell-based
# STUDY CONDITIONS: human, CYP3A4 induction reporter gene assay (cell line not given)
pIC50: −log10 of the molar value.
TEST READOUT: pIC50

Please tell me: pIC50 of O=C(Nc1nccs1)C(c1cc(F)ccc1O)N1Cc2ccccc2C1=O (stereo not shown) , system CYP3A4? < 5.00

###

# ASSAY SYSTEM: PXR Receptor (Homo sapiens, UniProt O75469)
# Sequence (O75469 1-434): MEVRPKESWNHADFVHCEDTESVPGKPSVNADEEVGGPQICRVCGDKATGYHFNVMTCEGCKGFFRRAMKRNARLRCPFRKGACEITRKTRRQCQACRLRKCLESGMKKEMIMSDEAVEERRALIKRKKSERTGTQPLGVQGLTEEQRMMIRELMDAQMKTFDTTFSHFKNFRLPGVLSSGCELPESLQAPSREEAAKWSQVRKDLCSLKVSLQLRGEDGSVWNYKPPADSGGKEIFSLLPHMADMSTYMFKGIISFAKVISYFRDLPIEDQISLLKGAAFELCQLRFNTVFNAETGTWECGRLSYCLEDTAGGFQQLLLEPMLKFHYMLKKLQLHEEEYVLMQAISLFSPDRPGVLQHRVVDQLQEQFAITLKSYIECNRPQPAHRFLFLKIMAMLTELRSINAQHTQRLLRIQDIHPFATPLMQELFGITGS
# ASSAY COMMENT: PXR Receptor antagonist assay
pIC50: −log10 of the molar value.
TEST READOUT: pIC50

Item O=C(Nc1nccs1)C(c1cc(F)ccc1O)N1Cc2ccccc2C1=O (stereo not shown) [EAI045] has what recorded pIC50? < 5.52
